Quick reference: MIC of the listed items.
Test system: Staphylococcus aureus
Assay: In vitro minimum inhibitory concentration of compound against Methicillin-resistant Staphylococcus aureus ATCC 33591
experimental-endpoint: MIC (µg/mL)

structure_smiles=CC(=O)NC[C@H]1CN(c2ccc(/C=C(\C#N)n3cnc4ccccc43)cc2)C(=O)O1 comparison_symbol== data_value=16
structure_smiles=CN[C@@H]1[C@H](O[C@H]2[C@H](O[C@H]3[C@H](O)[C@@H](O)[C@H](N=C(N)N)[C@@H](O)[C@@H]3N=C(N)N)O[C@@H](C)[C@]2(O)C=O)O[C@@H](CO)[C@H](O)[C@H]1O comparison_symbol=> data_value=32
structure_smiles=CC(=O)NC[C@H]1CN(c2ccc(/C=C(\C#N)n3nnc4ccccc43)cc2)C(=O)O1 comparison_symbol== data_value=16
structure_smiles=C/C(S)=N/C[C@H]1CN(c2ccc(/C=C(\C#N)n3nc4ccccc4n3)cc2)C(=O)O1 comparison_symbol== data_value=2
structure_smiles=CC(=O)NC[C@H]1CN(c2ccc(/C=C(/C#N)n3nnc4ccccc43)cc2)C(=O)O1 comparison_symbol=> data_value=32
structure_smiles=CC(=O)NC[C@H]1CN(c2ccc(/C=C(\C#N)n3nc4ccccc4n3)cc2)C(=O)O1 comparison_symbol== data_value=8
structure_smiles=CC(=O)NC[C@H]1CN(c2ccc(/C=C(\C#N)n3nc4ccccc4n3)c(F)c2)C(=O)O1 comparison_symbol== data_value=16

Taken from ChEMBL document CHEMBL1144435.
